Tested on: CCRF-CEM leukemia
Assay: NCI tumour cell line growth inhibition, 48 h
Where a SMILES comes first, the peptide text is derived from it. The star is where a group is joined. Boc = CC(C)(C)OC(=O)*; OBn = c1ccc(CO*)cc1; Bn = c1ccc(C*)cc1
property label: log10 TGI (log10 of the value in µM)
Heads up, the numbers here are log10 of TGI in µM units.

Notebook: CC(=O)OC1COC(N2C(=O)C(=O)c3cc(Br)c([N+](=O)[O-])cc32)C(OC(C)=O)C1OC(C)=O (configuration not stated) , log10 TGI read as 1.95

Notebook: CC1(c2cccc(C3CCC4(C=CC3=O)OCCO4)c2)OCCO1 (configuration not stated) , log10 TGI read as 1.02

Notebook: CC(C)CC(NC(=O)C(Cc1ccccc1)NC(=O)C(COCc1ccccc1)NC(=O)OC(C)(C)C)C(=O)OCc1ccccc1 (stereo not drawn) (Boc-Ser(Bn)-Phe-Leu-OBn; configuration not given here) , log10 TGI read as 1.80

Notebook: C=C1C(=O)O[C@H]2C1C[C@@H](O)[C@@]1(C)OC1CC[C@@]1(C)O[C@H]21 (some centres not stated) , log10 TGI read as 1.36

Notebook: Cc1ccccc1NC(=O)NC(CC(N)=O)c1ccc2c(c1)nc(-c1cccc(Oc3ccc(C(C)(C)C)cc3)c1)n2CCCN1CCCCC1C (configuration not stated) , log10 TGI read as 1.18

Notebook: COC(=O)c1ccc(/C=C/C2=CC(=O)C=CC2=O)cc1 , log10 TGI read as 0.82

Notebook: C=C(C)C1CC2=C(C(=O)OC)C=C(O2)C(C(=C)C)[C@@H]2OC(=O)/C(=C\C1O)[C@H]2N(C)C (some centres not stated) , log10 TGI read as 0.73

Notebook: CC(C)C[C@H](NC(=O)[C@@H](Cc1cccc2ccccc12)NC(=O)N1CCOCC1)B(O)O , log10 TGI read as 1.18

Notebook: CC(=O)C1=CC=C/C1=N\Nc1ccccc1 , log10 TGI read as 1.05

---

Tested on: NCI-H226 lung
Experiment: NCI tumour cell line growth inhibition, 48 h
property label: log10 TGI (log10 of the value in µM)
Heads up, the numbers here are log10 of TGI in µM units.

Notebook: O=Cc1ccc(C(F)(F)F)cc1.[C-]#[O+].[C-]#[O+].[C-]#[O+].[Cr] , log10 TGI read as 1.99

Notebook: CCCCCCCCSC1=CC(=O)C(OC)=C(OC)C1=O , log10 TGI read as 1.44

Notebook: Cc1ccc(Cl)cc1Nc1nc(C(F)(F)F)ccc1C(=O)Oc1ccc(Cl)cc1 , log10 TGI read as 1.56

Notebook: Cc1c2c(nn1-c1ccc(S/N=C3\SCC(=O)CN3c3ccccc3)cc1)-c1ccccc1CC2 , log10 TGI read as 1.43

Notebook: O=C1/C(=C/c2ccc(O)cc2)CCC1CNc1ccc(Cl)cc1 (stereo not given) , log10 TGI read as 1.41

Notebook: COc1ccccc1NC(=S)N/N=C(/c1ccccc1)c1ccccn1 , log10 TGI read as 0.94

Notebook: CC(C)(C)c1cc(C(O)(C(F)(F)F)C(F)(F)F)c2c(c1)C(C(F)(F)F)(C(F)(F)F)OC(c1ccccc1)(C(C)(C)C)N2 (stereo not given) , log10 TGI read as 0.97

Notebook: O=C1c2cccnc2-c2nc(-c3ccc([N+](=O)[O-])cc3)cc3c2c1nc1ccccc13 , log10 TGI read as 1.52

Notebook: O=C(O)/C(Cl)=C(/Cl)C(=O)Nc1cccc(Cl)c1 , log10 TGI read as 1.83

Notebook: Cc1cc(Cl)ccc1NC(=O)C1C(=O)N(c2ccc(Cl)cc2C)C(=O)/C1=N\N (stereo not given) , log10 TGI read as 1.97

Notebook: CCCCOC(=O)N[C@H]1CCc2cc(OC)c(OC)c(OC)c2-c2ccc(SC)c(=O)cc21 , log10 TGI read as -0.45

Notebook: Cc1ccccc1NC(=O)NC(CC(N)=O)c1ccc2c(c1)nc(-c1cccc(Oc3ccc(C(C)(C)C)cc3)c1)n2CCCN1CCCCC1C (stereo not given) , log10 TGI read as 1.41

---

Test system: SNB-75 CNS
Experiment: NCI tumour cell line growth inhibition, 48 h
Decide by TGI: equal to or exceeding 40 µM means 1, less means 0.

Input: Is the recorded value of TGI equal to or greater than 40 µM for this compound? C=C1C(=O)O[C@H]2C1C[C@@H](O)[C@@]1(C)OC1CC[C@@]1(C)O[C@H]21 (stereo partly drawn)
Output: 1

Input: Is the recorded value of TGI equal to or greater than 40 µM for this compound? CC(=O)c1ccc2c(c1)CC1(C2)Cc2cc3c(cc2C1)C(=O)CC3 (stereo not drawn)
Output: 1

Input: Is the recorded value of TGI equal to or greater than 40 µM for this compound? CC1OC(OP(=O)(OCc2ccccc2)OCc2ccccc2)C(OC(=O)c2ccccc2)C(OC(=O)c2ccccc2)C1I (stereo not drawn)
Output: 1

Input: Is the recorded value of TGI equal to or greater than 40 µM for this compound? O=Cc1ccc(C(F)(F)F)cc1.[C-]#[O+].[C-]#[O+].[C-]#[O+].[Cr]
Output: 1

Input: Is the recorded value of TGI equal to or greater than 40 µM for this compound? CCOC(=O)[C@H]1Nc2ccc(O)cc2C2c3ccccc3CC21 (stereo partly drawn)
Output: 1

Input: Is the recorded value of TGI equal to or greater than 40 µM for this compound? COc1ccc(OC)c2c1C[C@@H]1C(C#N)N3[C@H](Cc4c(OC)ccc(OC)c4[C@@H]3C)C(=O)N1[C@H]2C (stereo partly drawn)
Output: 0

Input: Is the recorded value of TGI equal to or greater than 40 µM for this compound? Cn1cccc1-c1cc(-c2ccc(Br)cc2)nc(N)c1C#N
Output: 1

Input: Is the recorded value of TGI equal to or greater than 40 µM for this compound? CC(C)(C)c1cc(C(O)(C(F)(F)F)C(F)(F)F)c2c(c1)C(C(F)(F)F)(C(F)(F)F)OC(c1ccccc1)(C(C)(C)C)N2 (stereo not drawn)
Output: 0

Input: Is the recorded value of TGI equal to or greater than 40 µM for this compound? CCOc1ccc(N=NC2C(=O)N(C(=O)CC(=O)Nc3ccc(Cl)cc3)N=C2C)cc1 (stereo not drawn)
Output: 1

Input: Is the recorded value of TGI equal to or greater than 40 µM for this compound? Cc1c(Cl)cccc1NC(=O)C(=O)C1C(=O)NC(=O)NC1=O
Output: 1

Input: Is the recorded value of TGI equal to or greater than 40 µM for this compound? CC(C)(C)[Si](C)(C)OCC1OC(n2ccc(=O)[nH]c2=O)C(O[Si](C)(C)C(C)(C)C)/C1=N/O (stereo not drawn)
Output: 1

Input: Is the recorded value of TGI equal to or greater than 40 µM for this compound? CCOc1ccc2c(c1)/C(=C\C=C\C1CC(C)C3CC(OCC)CCC3N1CC)CC(C)N2CC (stereo not drawn)
Output: 0

Input: Is the recorded value of TGI equal to or greater than 40 µM for this compound? CC1SC(c2cccs2)N(NC(=O)C(O)c2ccccc2)C1=O (stereo not drawn)
Output: 1

Input: Is the recorded value of TGI equal to or greater than 40 µM for this compound? CC1=C(C(=O)Nc2ccc(F)c(Cl)c2)C(c2cccc(Cl)c2)NC(=O)N1 (stereo not drawn)
Output: 0

Input: Is the recorded value of TGI equal to or greater than 40 µM for this compound? CC(=O)OCCOCNC(=S)N/N=C(\C)c1ccco1
Output: 1

Input: Is the recorded value of TGI equal to or greater than 40 µM for this compound? CC(=O)c1nc2ccccc2n1CC(=O)c1ccc([N+](=O)[O-])cc1
Output: 1

Input: Is the recorded value of TGI equal to or greater than 40 µM for this compound? O=C1c2cccnc2-c2nc(-c3ccc([N+](=O)[O-])cc3)cc3c2c1nc1ccccc13
Output: 0

Input: Is the recorded value of TGI equal to or greater than 40 µM for this compound? CC(=O)O[C@H]1C(=O)[C@]2(C)[C@@H](OC(=O)OCC(O)CO)C[C@H]3OC[C@@]3(OC(C)=O)[C@H]2[C@H](OC(=O)c2ccccc2)[C@]2(O)C[C@H](OC(=O)[C@H](O)[C@@H](NC(=O)c3ccccc3)c3ccccc3)C(C)=C1C2(C)C (stereo partly drawn)
Output: 0

Input: Is the recorded value of TGI equal to or greater than 40 µM for this compound? Cc1c2c(nn1-c1ccc(S/N=C3\SCC(=O)CN3c3ccccc3)cc1)-c1ccccc1CC2
Output: 1

Input: Is the recorded value of TGI equal to or greater than 40 µM for this compound? COc1ccc2c(CNCCCCO)cc3cc4c(cc3c2c1)OCO4
Output: 0

Input: Is the recorded value of TGI equal to or greater than 40 µM for this compound? CC(C)[C@]12O[C@H]1[C@@H]1O[C@]13[C@]1(O[C@H]1C[C@H]1c4c(C(=O)c5ccccc5)oc(OC(=O)c5ccccc5)c4CC[C@@]13C)[C@@H]2O
Output: 0

Input: Is the recorded value of TGI equal to or greater than 40 µM for this compound? COC(=O)c1nc2c(C)c(O)c(O)c([C@H](C)CCC=C(C)C)c2o1
Output: 1

Input: Is the recorded value of TGI equal to or greater than 40 µM for this compound? CCC(C#N)N(Cc1cccc(CN(C(C)=O)C(C#N)CC)c1)C(C)=O (stereo not drawn)
Output: 1

Input: Is the recorded value of TGI equal to or greater than 40 µM for this compound? Cc1ccccc1NC(=O)c1[nH]c(=S)nc(N)c1-c1ccccc1C
Output: 1

Input: Is the recorded value of TGI equal to or greater than 40 µM for this compound? Fc1ccc(Nc2nc(Nc3ccc(-c4nc5ccccc5[nH]4)cc3)nc(N3CCCC3)n2)cc1
Output: 0

Input: Is the recorded value of TGI equal to or greater than 40 µM for this compound? NC(=O)NC(=O)CI
Output: 0

Input: Is the recorded value of TGI equal to or greater than 40 µM for this compound? COC(=O)c1ccc2c(c1)nc(-c1ccc(Cl)cc1)n2-c1cc(C(C)(C)C)[nH]n1
Output: 0

Input: Is the recorded value of TGI equal to or greater than 40 µM for this compound? CCN(CC)P1(=S)Oc2ccc3ccccc3c2-c2c(ccc3ccccc23)O1
Output: 1

Input: Is the recorded value of TGI equal to or greater than 40 µM for this compound? N=C(/C=C/c1ccc(-c2cn3cc(/C=C/C(=N)N4CCOCC4)ccc3n2)cc1)N1CCOCC1
Output: 1

Input: Is the recorded value of TGI equal to or greater than 40 µM for this compound? Cc1ccc(Cl)cc1Nc1nc(C(F)(F)F)ccc1C(=O)Oc1ccc(Cl)cc1
Output: 0

Input: Is the recorded value of TGI equal to or greater than 40 µM for this compound? CCc1nnc2sc(-c3ccc(-c4ccc(Cl)cc4Cl)o3)nn12
Output: 1

Input: Is the recorded value of TGI equal to or greater than 40 µM for this compound? Cc1ccc(S(=O)/C=C(\NC(=O)OCc2ccccc2)C(F)(F)F)cc1 (stereo not drawn)
Output: 1

Input: Is the recorded value of TGI equal to or greater than 40 µM for this compound? CCP(=O)(CC)C(Cl)(Cl)C(=O)NC
Output: 1

Input: Is the recorded value of TGI equal to or greater than 40 µM for this compound? C(=N\NC1=NCCCN1)/c1ccc(-c2cn3cc(/C=N/NC4=NCCCN4)ccc3n2)cc1
Output: 1
